Tested Target: HIV-1 CNE20 envelope (Env) on Env.IMC.LucR virus (HIV-1 clade BC)
Assay Notes: cell-based or functional assay
Property: IC50 of virus neutralization (TZM-BL, luciferase) (µg/mL)
Return type: number; implicit unit µg/mL.

So, Cd4bs_H53MS_H54GY (antibody, V domains shown) VH: ADLVQSGAVVKKPGDSVRISCEAQGYRFPDYIIHWIRRAPGQGPEWMGWMNPSYGQVNIPWKFQGRVSMTRDTSIETAFLDLRGLKSDDTAVYYCVRDRSNGSGKRFESSNWFLDLWGRGTAVTIQS VL: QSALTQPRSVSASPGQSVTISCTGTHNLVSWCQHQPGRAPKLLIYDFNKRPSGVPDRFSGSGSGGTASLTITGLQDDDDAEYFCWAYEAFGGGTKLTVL ? Its IC50 of virus neutralization (TZM-BL, luciferase) was 0.047
